Entry source: PubChem BioAssay (NCI)

# System: A498 renal
# measurement.description: NCI tumour cell line growth inhibition, 48 h; in the data active means GI50 below about 0.43 µM; inactive means the rest
In this exercise, the only acceptable responses are active, inactive

{"compound": "CCOC(=O)/C(=C/c1ccccc1)C(=O)c1ccccc1", "assigned.class": "inactive"}
{"compound": "O=C(Nc1ccc(Cl)cc1F)c1cc(F)ccc1O", "assigned.class": "active"}
{"compound": "COc1ccc2[nH]c(-c3ccccc3)c(C=C(C#N)C#N)c2c1", "assigned.class": "inactive"}

Problem: Query: recorded result category for COc1ccc2c(c1)C(=O)c1c-2c(OCCN(C)C)nc2cc(OC)ccc12 in this test
Result: inactive

Problem: And CCc1nc(-n2c(CC)nc3ccccc3c2=O)nc(N)c1-c1ccc(Cl)cc1 ?
Result: inactive

Problem: Another compound to look at: O=S(=O)(CC#CCCCOCC#Cc1ccccc1C#CCS(=O)(=O)c1ccccc1)c1ccccc1
Result: inactive

Problem: Then what about the compound Cc1c2cnccc2c(C)c2c1c1cc(C(=O)O)ccc1n2C ?
Result: active

Problem: Do the same for C=CCC(N[C@@H](CO)c1ccccc1)c1ccccn1 (stereo not given in full) please
Result: inactive

Problem: Can you check COc1cccc2c1C(=O)c1c(O)c3c(c(O)c1C2=O)C[C@@](O)(C(=O)CO)C[C@@H]3OC1CC(OC(C)=O)C(OC(C)=O)C(C)O1 (stereo not given in full) next?
Result: active

Problem: Please answer likewise for COc1cc(/C=C2\CCCC3C2=Nc2ccccc2NC3c2cc(OC)c(OC)c(OC)c2)cc(OC)c1OC (stereo not given)
Result: inactive
